# System: acute pancreatitis murine model
# Test Method Notes: Caerulein-induced acute pancreatitis murine model
# Assay type: in vivo, Balb/c mice
# Condition Context: 1st experiment; terminal pancreatic tissue; 15 mg/kg IV, Ib-010a and IVc-059a 150 mg/kg PO, Pirfenidone 40 mg/kg IV
Task for the reader: assign each of the following molecules its reported Pancreas IL33 level.
Answers are plain numbers.

The cases that follow already have their Pancreas IL33 level on record.
query: Can you look up the measured Pancreas IL33 level of O=C(O)c1cc(NC(=O)c2cc(O)c(C(=O)Nc3ccccc3-c3nnn[nH]3)cc2O)ccc1O [Ic-001a-Tz/004a] for me?
result: 180

query: Now give it for O=C(O)c1cc(O)c(C(=O)Nc2ccccc2-c2nnn[nH]2)cc1O [Ia-001a-Tz] too.
result: 154

query: And Cc1ccc(=O)n(-c2ccccc2)c1 [pirfenidone, reference compound] ?
result: 78

Below are some molecules; for each one, tell me its Pancreas IL33 level.
1. O=C(O)c1cc(O)c(C(=O)Nc2ccccc2C(=O)O)cc1O [Ia-001a]
2. O=C(O)c1cc(NC(=O)c2cc(O)c(C(=O)Nc3ccc(O)c(C(=O)O)c3)cc2O)ccc1O [Ic-007a]
3. O=C(O)c1cc(NC(=O)c2cc(O)c(C(=O)O)cc2O)cc(NC(=O)c2cc(O)c(C(=O)O)cc2O)c1 [Ib-010a]
4. O=C(O)c1cc(O)c(CN(Cc2cc(O)c(C(=O)O)cc2O)Cc2cc(O)c(C(=O)O)cc2O)cc1O [IIIc-061a]

result:
[330, 147, 157, 177]

query: Give its Pancreas IL33 level value. Item: O=C(O)c1cc(O)cc(CS(=O)(=O)Cc2cc(O)cc(C(=O)O)c2O)c1O [IVc-059a]
result: 86

###

# Tested on: IL-4
# Test Method Notes: Cytokine release after LPS induction on human whole blood: IL-4
# Format: cell-based
# Condition Context: Homo sapiens, 18 h, read-out: Whole Blood: IL-4 IC50
pIC50: −log10 of the molar value.
Measurement Kind: pIC50

query: Entry under review: O=C(O)c1cc(NC(=O)c2cc(O)c(C(=O)Nc3ccccc3-c3nnn[nH]3)cc2O)ccc1O [Ic-001a-Tz/004a] . Reported pIC50?
result: < 4.00

###

For each entry below, report its % of reduction, PMNs (CD11b-Ly6G double + cells), treated over vehicle treated mice value.
# System: thioglycolate-induced peritonitis
# Test Method Notes: Thioglycolate-induced peritonitis murine model
# Format: in vivo, C57BL/6J mice
# Condition Context: 50 mg/kg i.p. 1 h prior to thioglycolate
# Description: Therapeutic efficacy of the compounds of the present invention was assessed using thioglycolate-induced peritonitis murine models as described by Cook A D et al. (J Immunol. 2003; 171(9):4816-4823) and Tsai J M et al. (Blood Adv. 2019; 3(18):2713-2721. doi: 10.1182/bloodadvances.2018024026). C57BL/6J mice were injected intraperitoneally (i.p.) with 1 mL of compounds at 50 mg/kg 1 h prior to the induction of peritonitis. […] Cell viability was measured by 7-AAD exclusion. […]
Answers are plain numbers, in %.

query: May I ask what % of reduction, PMNs (CD11b-Ly6G double + cells), treated over vehicle treated mice has been recorded for O=C(O)c1cc(O)c(CN(Cc2cc(O)c(C(=O)O)cc2O)Cc2cc(O)c(C(=O)O)cc2O)cc1O [IIIc-061a] ?
result: −8.3

query: Next compound up: O=C(O)c1cc(NC(=O)c2cc(O)c(C(=O)Nc3ccc(O)c(C(=O)O)c3)cc2O)ccc1O [Ic-007a]
result: 80

Provide each entry's % of reduction, PMNs (CD11b-Ly6G double + cells), treated over vehicle treated mice from the list below.
1. O=C(O)c1cc(NC(=O)c2cc(O)cc(C(=O)Nc3ccc(O)c(C(=O)O)c3)c2O)ccc1O [IIc-007a]
2. O=C(O)c1cc(O)cc(CS(=O)(=O)Cc2cc(O)cc(C(=O)O)c2O)c1O [IVc-059a]

result:
27.3
−13.0
